# TARGET_OR_SYSTEM: Gtα/Giα with a C-terminus truncated by six amino acids (European robin (Erithacus rubecula))
# TEST_SUMMARY: SPR; Gt-3AA or Gt-6AA immobilised on CM5 (3.1–4.2 ng/mm^2); LWO2 injected at 120 nM (Gt-3AA) or 100 nM (Gt-6AA); global fit, Langmuir 1:1 model; apparent KD; three sets each
Ends that are not written are not given here.
QUANTITY: Kd (nM)
API: value field is a number in nM; no unit string.

Data request: Entry CGAGAWERWFVVCKPFGNIKFDGK-NH2 (cysteine pairing not given here) [peptide LWO2 (second cytoplasmic loop of long-wavelength-sensitive opsin of European robin)] has what Kd?
Data returned: 50
